Assay: in vitro
Conditions: dog, MDCK
Hi, to clarify the labels: Y covers Papp from 10 ×10⁻⁶ cm/s upward, N covers anything below 10 ×10⁻⁶ cm/s.

> print(dat)
                                smiles.entry  category.label
 1  CC(=O)N1CCC(n2c(=O)n(C)c3cnc4ccc(-c5cccc6[nH]ncc56)nc4c32)CC1               N
 2  COc1ccc(-c2ccc3ncc4c(c3n2)n(-c2ccc(C(C)(C)C#N)cc2)c(=O)n4C)cn1               N
 3  COCC(=O)N1CCC(n2c(=O)n(C)c3cnc4ccc(-c5ccc(C)nc5)nc4c32)CC1               Y
 4  Cc1ccc(-c2ccc3ncc4c(c3n2)n(C2CCN(C(=O)CO)CC2)c(=O)n4C)cn1               Y
 5  CC(=O)N1CCC(n2c(=O)n(C)c3cnc4ccc(-c5ccc(C)nc5)nc4c32)CC1               Y
 6  C[C@H](O)C(=O)N1CCC(n2c(=O)n(C)c3cnc4ccc(-c5cccc6[nH]ncc56)nc4c32)CC1               N
 7  COc1ccc(-c2ccc3ncc4c(c3n2)n(C2CCN(C(C)=O)CC2)c(=O)n4C)cn1               Y
 8  COc1ccc(-c2ccc3ncc4c(c3n2)n([C@H]2CC[C@H](O)CC2)c(=O)n4C)cn1               Y
 9  COc1ccc(-c2ccc3ncc4c(c3n2)n(C2CCN(C)CC2)c(=O)n4C)cn1               N
10  CC(=O)N1CCC(n2c(=O)n(C)c3cnc4ccc(-c5cnc6[nH]ncc6c5)nc4c32)CC1               N
11  COc1ccc(-c2ccc3ncc4c(c3n2)n([C@H]2CC[C@H](OCCO)CC2)c(=O)n4C)cn1               Y
12  Cc1ccc(-c2ccc3ncc4c(c3n2)n(C2CCN(C(=O)C(C)(C)O)CC2)c(=O)n4C)cn1               Y

meta.source: ChEMBL document CHEMBL2331555
